Test: NCI Yeast Anticancer Drug Screen. Data for the mec2-1 strain (AID 157)
Conditions: S. cerevisiae mec2-1 strain, at 100.0 µM
The panel holds about 79,000 compounds, 15% with a hit somewhere; the sample as a whole holds those more often. The source made the active and inactive calls. Rule as the data show it: active = growth inhibition above about 70%; inactive = the rest. Starred links: 1 amine or outer side, 2 acyl side, 3 side chain; linkers in the order of their positions; H or OH if unused. Positions of bridges follow the written chain, without caps; N, C: chain ends. Non-standard residues stand in square brackets, D forms with d. Residues, ends and D or L forms follow the SMILES beside them. Chains are numbered I, II in the order given. Actinocin(9to1) = Cc1c2oc3c(C)ccc(C(=O)[*:1])c3nc-2c(C(=O)[*:2])c(N)c1=O; aThr = C[C@H](O)[C@H](N)C(=O)O; NMeV = CN[C@H](C(=O)O)C(C)C; Sar = CNCC(=O)O
Classes used: active, inactive

| COMPOUND | CLASS |
| --- | --- |
| O=C(N/N=C/c1ccc2c(c1)CCC2)c1ccccc1[N+](=O)[O-] | active |
| O=[N+]([O-])c1ccc2nnnn2c1 | inactive |
| O=C(CSS(=O)(=O)O)c1ccccc1 | inactive |
| O=C1OC(c2ccc(Cl)cc2)Sc2ccccc21 (centres undefined) | active |
| Cc1cnccc1N=Nc1ccc(N(C)C)cc1 | inactive |
| N=c1oc2ccccc2cc1-c1nc2ccccc2[nH]1 | inactive |
| COC(=O)C1(N2CCOCC2)CCC([C@@H](c2ccccc2)C(C)[N+](=O)[O-])C1 (some centres undefined) | inactive |
| COc1ccc(/C=C2\CCc3ccccc3C2=O)cc1OC | active |
| NNc1nnc(-c2ccccc2)nc1Cc1ccccc1 | active |
| Cc1c2oc3c(C)ccc(C(=O)N[C@@H]4C(=O)N[C@H](C(C)C)C(=O)N5CCC[C@H]5C(=O)N(C)CC(=O)N(C)[C@@H](C(C)C)C(=O)O[C@H]4C)c3nc-2c(C(=O)N[C@@H]2C(=O)N[C@H](C(C)C)C(=O)N3CCC[C@H]3C(=O)N(C)CC(=O)N(C)[C@@H](C(C)C)C(=O)O[C@H]2C)c(N)c1=O (I: [aThr][dV]P[Sar][NMeV] / II: [aThr][dV]P[Sar][NMeV]; ester I:1-I:C, II:1-II:C; linker I:N-II:N via Actinocin(9to1)) | active |
| Cc1c(N=Nc2ccc(Cl)cc2)c(C)n(C2OC(CO)C(O)C(O)C2O)c(=S)c1C#N (centres undefined) | inactive |
| CCCC(=O)OC(OC(=O)CCC)c1ccc([N+](=O)[O-])o1 | inactive |
| CC(C)(C)[Si](C)(C)OCC1OC(n2cnc3c(N)ncnc32)C2OC(=S)OC12 (centres undefined) | inactive |
| CCC(C)C(=O)OCC(=O)c1ccc(-c2ccccc2)cc1 (centres undefined) | inactive |
| [Cl][Pt+2][Cl].[NH-]CC1(C[NH-])CCCCC1 | active |
| O=C(Cc1ccccc1F)NC1=C(Cl)C(=O)c2ccccc2C1=O | inactive |
| CN(Cc1cccc2ccccc12)Cc1cccc2ccccc12 | inactive |
| Cc1ccccc1C1=C(CC(=O)O)c2ccccc2CC1C (centres undefined) | active |
| CN(C)c1ccc(C(c2ccc(Cl)cc2)c2ccc(N(C)C)cc2)cc1 | active |

###

Assay: NCI Yeast Anticancer Drug Screen. Data for the rad14 strain (AID 159);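 also: 0% = growth of vehicle-treated control cultures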
Conditions: S. cerevisiae rad14 strain growth inhibition; at 1.2 µM; stronger effect = higher value
Compounds without any hit were thinned out: in the full panel of roughly 79,000, 15% have a hit. The source made the active and inactive calls. Cut-off read from the data, not from the text of the source: active = growth inhibition above about 70%; inactive = the rest.

| COMPOUND | growth inhibition |
| --- | --- |
| [Cl][Pt+2][Cl].[NH-]CC1(C[NH-])CCCCC1 | -29% (inactive) |
| CC1=Cc2ccc(C)cc2C(=O)C1=O | 18% (inactive) |
| COc1ccc(C(=O)NCCN(C)C)c2nc3ccccc3cc12 | 7% (inactive) |
| O=C(CSS(=O)(=O)O)c1ccccc1 | 2% (inactive) |
| CCC(C)C(=O)OCC(=O)c1ccc(-c2ccccc2)cc1 (stereo not drawn) | -1% (inactive) |
| O=C(/C(=C/c1ccccc1)CBr)c1ccccc1 | 3% (inactive) |
| CCOC(=O)/C=C1\CCCn2c1ncc(C(=O)OCC)c2=O | 4% (inactive) |
| CC(=O)CC[N+](C)(C)C | 5% (inactive) |
| Cc1ccc(C(C)C)c(C(=C2C=CC(=[N+](C)C)C=C2)c2c(C(C)C)ccc(C)c2O)c1O | 1% (inactive) |
| O=c1[nH]c(=O)n(CCCO)cc1F | -29% (inactive) |
| CCC1SC(=S)N(c2ccc(Cl)cc2)C1=O (stereo not drawn) | 4% (inactive) |
| O=C1c2ccccc2C2CCC1c1ccccc12 (stereo not drawn) | -25% (inactive) |
| O=Cc1ccccc1B(O)O | 3% (inactive) |

###

Experiment: NCI Yeast Anticancer Drug Screen. Data for the rad50 strain (AID 155);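 also: 0% = growth of vehicle-only cultures of the same strain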
Conditions: S. cerevisiae rad50 strain growth inhibition; at 5.0 µM (retest, dose inferred, filed as 0.5); stronger effect = higher value
This is part of a sample that, as a whole, favours compounds with a hit. Of some 79,000 tested, about 15% had one in any assay.
Below is a list of entries, each paired with its recorded growth inhibition value.

| MOLECULE | growth inhibition [%] |
| --- | --- |
| CC1=Cc2ccc(C)cc2C(=O)C1=O | 31 |
| CN(C)N=Nc1ccc(NC=O)cc1 | 23 |
| N=c1oc2ccccc2cc1-c1nc2ccccc2[nH]1 | 7 |
| O=C(Nn1c(-c2ccccc2)nc2ccccc2c1=O)c1ccc(Cl)cc1 | -24 |
| CCCCCC/C(C)=N/Nc1ccc([N+](=O)[O-])cc1[N+](=O)[O-] | -3 |
| COc1ccc(/C=C2\CCc3ccccc3C2=O)cc1OC | 36 |
| CCOC(=O)C(NC(=O)c1ccccc1)[CH](c1ccccc1)[Sn]([c]1ccccc1)([c]1ccccc1)[c]1ccccc1 (stereo unspecified) | -4 |
| O=C(O)[C@H]1[C@@H](C2CCCCC2)O[C@@H](C2CCCCC2)O[C@H]1C(F)(F)F | -46 |
| N=C(N)c1ccc(N=Nc2c(O)ccc3c2[nH]c2ccccc23)cc1 | 57 |
| CCCCCCCCCC/C=C\CC(=O)O | -1 |
| CN(C)N1C(=O)SCC(c2ccccc2)(c2ccccc2)C1=O | -10 |
| C[Si](C)(C)Cc1ccccc1C(=O)O | 2 |
| c1ccc(N/N=C2\CC(c3ccccc3)Oc3ccccc32)cc1 (stereo unspecified) | 5 |
| Cc1cccc[c]1[Sn]([Cl])([S]/C(C#N)=N/N=C/c1ccc(N(C)C)cc1)[c]1ccccc1C | 40 |
| CC(C)(C(=O)NN)c1ccccc1 | 14 |
| O=C(Nc1ccn(C2CC(O)C(COC(c3ccccc3)(c3ccccc3)c3ccccc3)O2)c(=O)n1)c1ccccc1 (stereo unspecified) | 85 |
| O=C(CCCN1CCC2(CC1)OC(=O)N(c1ccccc1)C2=O)c1ccccc1 | 31 |
| CCCCCC(=O)C(C)(c1nc2n(c1O)/C(=N/C(=O)Nc1ccc(Cl)cc1)N=N2)c1nc2n(c1O)/C(=N/C(=O)Nc1ccc(Cl)cc1)N=N2 | -7 |
| CCOc1ccc2ccc3cccnc3c2n1 | -1 |
| CCCCCCCCCCCCCCCCOCC(Cl)COP(=O)(O)OP(=O)(O)OCC1OC(n2cnc3c(N)ncnc32)C(O)C1O (stereo unspecified) | 49 |
| O=S(=O)(O)c1ccc2c(N=Nc3c(O)ccc4ccccc34)cccc2c1 | 26 |
| Nc1ccc2cc(Br)c3ccccc3c2c1 | 5 |
| O=C1C=CC(=Nc2ccc3c(c2)Cc2cc(Cl)ccc2-3)O1 | 25 |
| CC1(C)CC(=O)C(C(CC(c2ccccc2)c2cc3c(cc2O)OCO3)C2=C(O)CC(C)(C)CC2=O)=C(O)C1 (stereo unspecified) | 11 |
| CCOC(=O)C1=C(C)NC(C)=C(C(=O)OCC)C1c1ccc(Cl)cc1 | 98 |
| COc1ccc(C(=O)OCCc2ccccc2)cc1 | -3 |

###

Experiment: NCI Yeast Anticancer Drug Screen. Data for the wt1 strain (AID 149);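 also: 0% = growth of vehicle-treated wt1 cultures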
Conditions: S. cerevisiae wt1 strain (SPY 50644) growth inhibition; at 3.7 µM; stronger effect = higher value
Experimental: Growth inhibition of yeast strains with defined genetic alterations is measured as a screen for potential anti-cancer activity. Selected strains with alterations in DNA damage repair or cell cycle control were exposed to compounds and growth inhibition was measured relative to vehicle treated controls. The strain used in this assay is wt1
This is part of a sample that, as a whole, favours compounds with a hit. Of some 79,000 tested, about 15% had one in any assay.
Known growth inhibition of a selection of compounds

| COMPOUND | VALUE UNIT | growth inhibition |
| --- | --- | --- |
| CN(C)/N=N/c1nc[nH]c1C(N)=O | % | -1 |
| Cc1ccc(N(C=O)c2c([N+](=O)[O-])cc([N+](=O)[O-])c3c2=[N+]([O-])CN=3)cc1 | % | 23 |
| CCOc1ccc2ccc3cccnc3c2n1 | % | -2 |
| CCOc1ccccc1N1C(=O)CC(Sc2ccccc2N)C1=O (configuration not stated) | % | 17 |
| COc1ccc(CCN2C(=O)C=CC2=O)cc1OC | % | 7 |
| CCN(CC)c1ccc(N=Nc2cc(S(=O)(=O)O)ccc2O)c(O)c1 | % | 15 |
| COc1ccc(C(=O)OCCc2ccccc2)cc1 | % | -5 |
| O=C(O)[C@H]1[C@@H](C2CCCCC2)O[C@@H](C2CCCCC2)O[C@H]1C(F)(F)F | % | 0 |
| Cc1c(N=Nc2ccc(Cl)cc2)c(C)n(C2OC(CO)C(O)C(O)C2O)c(=S)c1C#N (configuration not stated) | % | 2 |
| CN(C)c1ccc(C(c2ccc(Cl)cc2)c2ccc(N(C)C)cc2)cc1 | % | 53 |
| CCOC(=O)c1sc2[n+](c1C)C(=O)/C(=C/c1cc(OC)c(OC)c(OC)c1)S2 | % | 2 |
| COc1ccc2nc(N/N=C/c3sccc3C)cc(C)c2c1 | % | -32 |
| CCCCCCCCCCCCOC1C(COCCN2CCCC2)OC2OC(C)(C)OC21 (configuration not stated) | % | 15 |
| O=C1C(C(O)(C(F)(F)F)C(F)(F)F)CCC1C(O)(C(F)(F)F)C(F)(F)F (configuration not stated) | % | 6 |
| Cc1ccc(Cl)c2c(=O)c3ccccc3[nH]c12 | % | -3 |
| N#C/C(=C1C=C/C(=N\O)C(Cl)=C\1)c1ccccc1 | % | -5 |
| COc1ccc(/C=C2\CCc3ccccc3C2=O)cc1OC | % | -2 |
| N=C(N)c1ccc(N=Nc2c(O)ccc3c2[nH]c2ccccc23)cc1 | % | -1 |
| O=S(=O)(Oc1c(Cl)cc(Cl)cc1Cl)c1ccccc1 | % | -7 |
| CCCC#CCOC(=O)c1cc([N+](=O)[O-])cc([N+](=O)[O-])c1 | % | 22 |
| CC(C)c1ccc(C2NC(=S)NC3=C2c2ccccc2C3=O)cc1 (configuration not stated) | % | 6 |
| CC1(C)CC(=O)C(C(CC(c2ccccc2)c2cc3c(cc2O)OCO3)C2=C(O)CC(C)(C)CC2=O)=C(O)C1 (configuration not stated) | % | -3 |
